Reported Kd is given for each of the following binders.
# assay_target: T1, human CD3ε/δ-His (human, UniProt P07766 23-126; P04234 22-105)
# T1 construct: Bought recombinant heterodimer with His tag; also called human CD3ε/δ protein
# T1 sequence (P07766 23-126, stated change not applied, form in doubt, chain 1 of 2): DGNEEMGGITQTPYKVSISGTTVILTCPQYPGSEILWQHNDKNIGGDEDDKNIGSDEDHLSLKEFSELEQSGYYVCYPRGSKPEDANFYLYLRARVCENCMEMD
# T1 sequence (P04234 22-105, stated change not applied, form in doubt, chain 2 of 2): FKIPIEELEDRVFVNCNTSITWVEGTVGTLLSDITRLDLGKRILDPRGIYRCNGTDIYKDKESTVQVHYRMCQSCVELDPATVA
# test_summary: SPR, antibody captured on Protein A chip

# binder, Kd
data = [
    ("8-18.1-H1-L2 humanized antibody (antibody, human IgG1, kappa, V domains shown) VH: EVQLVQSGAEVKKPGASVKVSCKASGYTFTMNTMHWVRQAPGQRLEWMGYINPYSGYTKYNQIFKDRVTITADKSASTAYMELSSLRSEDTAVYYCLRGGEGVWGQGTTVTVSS VL: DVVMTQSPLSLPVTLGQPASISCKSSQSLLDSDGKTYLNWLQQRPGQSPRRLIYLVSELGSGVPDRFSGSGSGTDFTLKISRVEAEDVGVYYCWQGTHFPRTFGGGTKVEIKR", "67.4 nM"),
    ("40G5c-hIgG1 (antibody, V domains shown) VH: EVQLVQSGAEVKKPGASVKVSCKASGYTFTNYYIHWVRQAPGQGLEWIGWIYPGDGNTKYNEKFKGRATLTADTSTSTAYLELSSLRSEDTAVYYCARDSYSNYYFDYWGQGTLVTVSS VL: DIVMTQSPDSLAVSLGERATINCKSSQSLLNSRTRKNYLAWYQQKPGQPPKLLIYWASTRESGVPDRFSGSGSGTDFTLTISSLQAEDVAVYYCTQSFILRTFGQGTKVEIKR", "21.3 nM"),
    ("1-22.6-1-H2a-L2a humanized antibody (antibody, human IgG1, kappa, V domains shown, also called 1-22.6-H2a-L2a) VH: EVQLVQSGSELKKPGASVKVSCKTSGYTFTSYGMSWVRQAPGQGLEWMGWINTYSGVPTYAQDFKGRFVFSLDTSVSTAYLQISSLKAEDTAVYYCARLKNNPFVWGQGTTVTVSS VL: DIVMTQSPDSLAVSLGERATINCRSSQLILHSSGNTYLEWYQQKPGQSPKLLIYKVSNRFSGVPDRFSGSGSGTDFTLTISSLQAEDVAVYYCFQGSHFPWTFGGGTKVEIKR", "113 nM"),
]

Let us examine a further case.
Need Kd, item 5-7.13-H1a-L2 humanized antibody (antibody, human IgG1, kappa, V domains shown) VH: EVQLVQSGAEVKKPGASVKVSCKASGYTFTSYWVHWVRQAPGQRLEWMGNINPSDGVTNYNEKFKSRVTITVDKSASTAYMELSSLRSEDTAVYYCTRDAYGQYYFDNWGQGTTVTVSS VL: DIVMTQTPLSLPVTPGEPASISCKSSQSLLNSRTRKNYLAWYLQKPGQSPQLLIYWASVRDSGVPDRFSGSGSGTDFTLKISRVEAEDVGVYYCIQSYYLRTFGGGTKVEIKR
27.4 nM
